ASSAYED_TARGET: A disintegrin and metalloproteinase with thrombospondin motifs 4 (Homo sapiens, UniProt O75173)
Sequence (O75173 whole entry): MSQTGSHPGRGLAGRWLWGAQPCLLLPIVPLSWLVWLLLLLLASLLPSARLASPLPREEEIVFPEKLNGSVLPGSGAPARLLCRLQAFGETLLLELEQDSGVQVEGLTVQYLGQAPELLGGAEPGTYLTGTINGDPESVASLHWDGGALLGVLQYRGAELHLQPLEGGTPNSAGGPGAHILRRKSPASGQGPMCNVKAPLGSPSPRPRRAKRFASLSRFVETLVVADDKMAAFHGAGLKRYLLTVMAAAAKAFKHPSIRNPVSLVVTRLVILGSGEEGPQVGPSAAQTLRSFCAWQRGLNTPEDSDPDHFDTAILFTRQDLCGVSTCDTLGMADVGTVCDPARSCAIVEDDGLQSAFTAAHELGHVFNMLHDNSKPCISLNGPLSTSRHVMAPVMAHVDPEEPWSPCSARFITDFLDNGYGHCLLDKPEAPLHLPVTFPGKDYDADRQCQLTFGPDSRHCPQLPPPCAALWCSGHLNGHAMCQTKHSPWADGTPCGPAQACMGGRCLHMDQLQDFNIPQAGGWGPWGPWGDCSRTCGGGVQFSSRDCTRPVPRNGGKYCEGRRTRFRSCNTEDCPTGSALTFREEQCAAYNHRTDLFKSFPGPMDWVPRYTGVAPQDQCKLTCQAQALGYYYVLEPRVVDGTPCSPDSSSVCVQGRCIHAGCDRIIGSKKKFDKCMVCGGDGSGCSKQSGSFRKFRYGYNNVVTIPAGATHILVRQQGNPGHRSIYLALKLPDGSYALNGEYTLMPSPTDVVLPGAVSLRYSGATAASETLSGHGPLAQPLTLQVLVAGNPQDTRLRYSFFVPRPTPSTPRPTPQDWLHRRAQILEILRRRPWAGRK
READOUT: pIC50
pIC50 here is simply -log10 of the concentration when that concentration is written in mol/L.

These solved cases illustrate the format of a correct answer.
INSERT INTO results (chemical_structure, readout, value_reported) VALUES
  ('Cc1ccc(C)c(CCC2CCN(S(=O)(=O)C[C@](C)(C[C@H](C)c3ncc(F)cn3)N(O)C=O)CC2)c1', 'pIC50', 9.32),
  ('Cc1cc(CCC2CCN(S(=O)(=O)C[C@](C)(C[C@H](C)c3ncc(F)cn3)N(O)C=O)CC2)c(C)cn1', 'pIC50', 9.37),
  ('Cc1cc(F)ccc1CCC1CCN(S(=O)(=O)C[C@](C)(C[C@H](C)c2ncc(F)cn2)N(O)C=O)CC1', 'pIC50', 9.74),
  ('C[C@@H](C[C@@](C)(CS(=O)(=O)N1CCN(c2ccc(F)cc2)CC1)N(O)C=O)c1ncc(F)cn1', 'pIC50', 8.14),
  ('C[C@@H](C[C@@](C)(CS(=O)(=O)N1CCC(CCc2cc(F)ccc2Cl)CC1)N(O)C=O)c1ncc(F)cn1', 'pIC50', 8.55);

Field request: pIC50 | item: C[C@@H](C[C@@](C)(CS(=O)(=O)N1CCC(CCc2ccc(C(F)(F)F)cc2C2CC2)CC1)N(O)C=O)c1ncc(F)cn1
9.03

// next record Cc1cc(C(F)(F)F)cnc1CCC1CCN(S(=O)(=O)C[C@](C)(C[C@H](C)c2ncc(F)cn2)N(O)C=O)CC1
8.68

// next record Cc1cc(C)c(CCC2CCN(S(=O)(=O)C[C@](C)(C[C@H](C)c3ncc(F)cn3)N(O)C=O)CC2)cn1
9.17

// next record Cc1cc(Cl)ccc1CCC1CCN(S(=O)(=O)C[C@](C)(C[C@H](C)c2ncc(F)cn2)N(O)C=O)CC1
9.44
